# TEST_TARGET: CRTH2 (Homo sapiens)
# Sequence (Q9Y5Y4 1-395): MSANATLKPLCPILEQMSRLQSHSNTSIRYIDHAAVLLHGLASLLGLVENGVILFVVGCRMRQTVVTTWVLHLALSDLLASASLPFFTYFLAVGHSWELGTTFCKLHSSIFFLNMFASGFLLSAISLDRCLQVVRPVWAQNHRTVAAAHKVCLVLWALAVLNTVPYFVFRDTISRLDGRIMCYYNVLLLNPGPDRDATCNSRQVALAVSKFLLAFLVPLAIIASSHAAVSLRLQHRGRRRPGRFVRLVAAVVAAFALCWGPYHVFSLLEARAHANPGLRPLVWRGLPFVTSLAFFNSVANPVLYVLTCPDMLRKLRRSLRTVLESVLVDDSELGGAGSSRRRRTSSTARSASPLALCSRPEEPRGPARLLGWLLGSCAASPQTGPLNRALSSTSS
# ASSAY_PROTOCOL: FRET based competitive immunoassay (cAMP) in CRTH2 expressing CHO cells
# TEST_SETTINGS: CRTH2 expressing CHO cells incubated with forskolin and PGD2; Eu3+ cryptate-labeled anti-cAMP and d2-labeled cAMP
Categories are defined by ranges of IC50, namely range 1 (below 8 nM), range 2 (8 nM to below 30 nM), range 3 (30 nM or more)

Pick a category. Item: "Cc1c(Cc2ccc(=O)n(Cc3ccc(F)cc3F)n2)c2cc(F)cc(F)c2n1CC(=O)O"
range 2

Repeat with "Cc1c(-c2nn(C(C)C)c(=O)c3ccccc23)c2cc(F)ccc2n1CC(=O)O"
range 2

Same question for "Cc1c(-c2ccc(=O)n(Cc3ccc(Cl)c(F)c3)n2)c2cc(F)ccc2n1CC(=O)O" please.
range 1

Now try "COc1ccc2c(c1)c(-c1ccc(=O)n(Cc3ccccc3)n1)c(C)n2CC(=O)O" .
range 3

Same thing, different compound: "Cc1c(-c2nn(Cc3ccccc3)c(=O)c3ccccc23)c2cc(S(C)(=O)=O)ccc2n1CC(=O)O"
range 2

Could you do the same for "Cc1c(-c2nn(Cc3ccc(Cl)cc3Cl)c(=O)c3ccccc23)c2cc(F)ccc2n1CC(=O)O" , please?
range 1

Would you mind doing "Cc1c(-c2ccc(=O)n(Cc3ccccc3F)c2)c2cc(F)ccc2n1CC(=O)O" as well?
range 2

Follow-up entry: "Cc1c(-c2ccc(=O)n(C(C)C)n2)c2cc(Cl)cc(Cl)c2n1CC(=O)O"
range 3

Also check "Cc1c(-c2nn(Cc3ccc4ccccc4n3)c(=O)c3ccccc23)c2ccccc2n1CC(=O)O"
range 2

Could you do the same for "Cc1c(-c2nn(CCC(F)(F)F)c(=O)c3ccccc23)c2cc(F)ccc2n1CC(=O)O" , please?
range 1

====

# TEST_TARGET: CRTH2 (Homo sapiens, UniProt Q9Y5Y4)
# ASSAY_PROTOCOL: FRET based competitive immunoassay (cAMP) in CRTH2 expressing CHO cells
# TEST_SETTINGS: CRTH2 expressing CHO cells incubated with forskolin and PGD2; Eu3+ cryptate-labeled anti-cAMP and d2-labeled cAMP
RECORDED_ENDPOINT: pIC50
Answers are plain numbers, as −log10 of the molar value.

Cc1c(Cc2ccc(=O)n(CC(F)(F)F)n2)c2cc(F)ccc2n1CC(=O)O	7.51

Give one value of pIC50 per listed compound.
1. Cc1c(-c2nn(Cc3nc4cc(F)ccc4s3)c(=O)c3ccccc23)c2cc(F)ccc2n1CC(=O)O
2. Cc1c(-c2nn(-c3ccccc3)c(=O)c3ccccc23)c2cc(F)ccc2n1CC(=O)O
3. Cc1c(-c2nn(Cc3nc4cc(C(F)(F)F)ccc4s3)c(=O)c3ccccc23)c2cc(F)ccc2n1CC(=O)O

7.89
7.22
7.19

For the 6 compounds below, give their pIC50 values.
1. Cc1c(-c2nn(Cc3cccc(C(F)(F)F)c3)c(=O)c3ccccc23)c2cc(F)ccc2n1CC(=O)O
2. Cc1c(Cc2ccc(=O)n(Cc3ccc(F)c(F)c3)c2)c2cc(F)ccc2n1CC(=O)O
3. Cc1c(-c2nn(Cc3cc(F)c(F)cc3F)c(=O)c3ccccc23)c2cc(Cl)ccc2n1CC(=O)O
4. Cc1c(Cc2ccc(=O)n(Cc3ccccc3F)c2)c2cc(F)ccc2n1CC(=O)O
5. Cc1c(-c2nn(Cc3ccccc3)c(=O)c3ccccc23)c2cc(F)cc(F)c2n1CC(=O)O
6. Cc1c(-c2ccc(=O)n(Cc3cccc(F)c3C(F)(F)F)n2)c2cc(F)ccc2n1CC(=O)O

[8.00, 7.96, 7.96, 8.10, 7.22, 7.60]

Dear colleague, could you please provide pIC50 for the compounds listed below?
1. Cc1c(-c2nn(C)c(=O)c3ccccc23)c2ccccc2n1CC(=O)O
2. Cc1c(Cc2ccc(=O)n(Cc3cc(F)cc(F)c3)c2)c2cc(F)ccc2n1CC(=O)O
3. Cc1c(-c2nn(Cc3nc4cc(F)ccc4s3)c(=O)c3ccccc23)c2cc(Cl)ccc2n1CC(=O)O
4. Cc1c(-c2cn(C(C)C)c(=O)c3c2CCCC3)c2cc(F)ccc2n1CC(=O)O

1. 6.01
2. 8.70
3. 8.00
4. 6.97
